Known relative affinity of a selection of binders
tested system: T1, HLA-DP402 (HLA-DPB1*04:02) (human, UniProt P20036 29-222)
T1 construct: mature; purified from homozygous EBV-transformed lymphoblastoid cells with antibody B7/21
assay notes: competition ELISA vs biotin-Oxy 271-287
No end group written: not given here.
Enter a number only.

binder	readout number
HTLAKYLMELTMLDY-NH2 [CCNB1 320-334]	3

Below: the item to evaluate.
Incoming: Please give measured relative affinity of the following entry: PQLNSALVQDLAKAV-NH2 [CCNB1 416-430]
Outgoing: 74
